assay: Liver microsomes stability, mouse; conditions: male, microsomes
Measurement Type: CLint scaled at 2 μM (mL/min/kg)
Quick note: give the figure in mL/min/kg, leave out the unit.

Please review the entries below; each comes with its answer.
COc1ccc2c(c1)C(C[C@H]1CCCN1)CN2 (stereo partly drawn) [(R)-I-165]: 65.1
COc1ccc2c(c1)C(C[C@H]1CCCN1C)CN2 (stereo partly drawn) [(R)-I-54]: 323

Now look at this one.
get_value(item= CN1CCC[C@@H]1C[C@H]1CNc2ccc(F)cc21 [(R),(R)-I-47] , readout=CLint scaled at 2 μM) returns 15.5

====

assay: Liver microsomes stability, mouse; settings: Without NADPH, 60 min
Measured Remaining Percentage by item
Field format: number, assumed %, no unit text.

Known results for compounds:
COc1ccc2c(c1)C(C[C@H]1CCCN1C)CN2 (stereo partly drawn) [(R)-I-54]: 91.62
CN1CCC[C@@H]1C[C@H]1CNc2ccc(F)cc21 [(R),(R)-I-47]: 87.16
COc1ccc2c(c1)C(C[C@H]1CCCN1)CN2 (stereo partly drawn) [(R)-I-165]: 117.77

Now take the following compound into account.
# Remaining Percentage of COc1cccc2c1C(C[C@H]1CCCN1C)CN2 (stereo partly drawn) [(R)-I-94] = 106.02
